- System: ALK
- experimental-context: concentration: 1 μM,replicates: in singlicate; n = 1;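 also: KINOMEscan kinase panel screen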
Threshold check on %Inh: strictly below 10% is MET; on or above 10% is NOT MET.

The examples below pair each entry with its known result.
For `CN(c1cccc(CNc2nc(Nc3ccc4c(c3)CC(=O)N4)ncc2C(F)(F)F)c1)S(C)(=O)=O` , is the recorded %Inh below the cut-off of 10%?
NOT MET

Note, next up: `Cn1ccc2ncnc(Oc3ccc(NC(=O)Nc4cccc(C(F)(F)F)c4)c(Cl)c3)c21`
MET

Note, next up: CCn1c(-c2nonc2N)nc2cncc(CNC3CCNCC3)c21.Cl [SB-747651]
NOT MET

Continuing:
For Nc1nccc(-c2ccc3c(N)n[nH]c3c2)n1 [GSK1034945] , is the recorded %Inh below the cut-off of 10%?
NOT MET

Note, next up: `CS(=O)(=O)c1cccc(CNc2nc(Nc3ccc4c(c3)[C@@H]3C[C@@H]4CNC3=O)ncc2C(F)(F)F)c1`
MET

Note, next up: COc1cccc(OC)c1C(=O)Nc1cccc(-c2nn3ccccc3c2-c2ccnc(Nc3cccc(F)c3)n2)c1 [GSK361065]
MET

Note, next up: COC(=O)Nc1nc2cc(Oc3ccc(NC(=O)Nc4cc(C(F)(F)F)ccc4Cl)cc3)ccc2[nH]1.Cl [GW697465]
NOT MET

* * *

- Tested on: PYK2
- Construct: gene PTK2B
- experimental-context: concentration: 1 μM,replicates: in singlicate; n = 1
Some compounds, each annotated with its measured %Inh.
Express it in %; write the number only.

// fetch PYK2 %Inh for `CSc1nccc(-c2c(-c3ccc(F)cc3)ncn2CCCN2CCOCC2)n1.Cl`
5

Note, next up: `Cc1ccc2c(-c3ccnc(Nc4ccc(C(F)(F)F)cc4)n3)cnn2n1`
16

Note, next up: `Nc1nccc(-c2ccc3c(N)n[nH]c3c2)n1`
8

Note, next up: `O=C(Nc1ccc(Oc2ccc3nc(NC(=O)C4CC4)cn3n2)c(F)c1)c1cccn(-c2ccccc2)c1=O`
19

Note, next up: `Cn1ccc2ncnc(Oc3ccc(NC(=O)Nc4cccc(C(F)(F)F)c4)c(F)c3)c21`
11

Note, next up: `C[C@@H](Oc1cc(-n2cnc3ccc(-c4ccncc4)cc32)sc1C(N)=O)c1ccccc1Cl`
0

Note, next up: `c1ccc(Oc2ccc(Nc3ccnc4ccc(-c5ccccn5)cc34)cc2)cc1`
0

Note, next up: `COC(=O)Nc1nc2cc(Oc3ccc(NC(=O)Nc4cc(C(F)(F)F)ccc4Cl)cc3)ccc2[nH]1.Cl`
24

Note, next up: `COc1cc2c(Nc3ccc(NC(=O)c4ccccc4)cc3)ncnc2cc1OCCCN1CCOCC1`
0

Note, next up: `CCn1c(-c2nonc2N)nc2cncc(Br)c21`
0

Note, next up: `CS(=O)(=O)c1cccc(CNc2nc(Nc3ccc4c(c3)[C@@H]3C[C@@H]4CNC3=O)ncc2C(F)(F)F)c1`
66

Note, next up: `OCCn1cc(-c2cnc3nnn(Cc4ccc5ncccc5c4)c3n2)cn1`
0

Note, next up: `CC(=O)c1c(-c2ccncc2)[nH]c(-c2ccncc2)c1C`
0

Note, next up: COc1cccc(CNC(=O)NC2CCN(c3ccnc(Nc4cc(OC)c(OC)c(OC)c4)n3)C2)c1 (centres unmarked)
0

Note, next up: `CC(C)S(=O)(=O)N1CCN(Cc2ccc3c(c2)nc(NC(=O)c2ccsc2)n3C[C@H](O)c2ccccc2)CC1`
38

Note, next up: COc1ccc(Nc2nccc(N3CCC(NC(=O)c4cccc(C#N)c4)C3)n2)cc1 (centres unmarked)
18

Note, next up: `C[C@@H](Oc1cc(-n2cnc3cc(-c4cnn(C)c4)ccc32)sc1C(N)=O)c1ccccc1Cl`
0

* * *

- System: MAP4K3
- experimental-context: concentration: 1 μM,replicates: in singlicate; n = 1
readout: %Inh (%)
Express it in %; write the number only.

Known results for compounds:
// fetch MAP4K3 %Inh for `Cn1ccc2ncnc(Oc3ccc(NC(=O)Nc4cnn(C(C)(C)C)c4)c(Cl)c3)c21`
0

Note, next up: `Cc1ccc(C(=O)Nc2ccc(Oc3ccc4nc(NC(=O)C5CC5)cn4c3)c(F)c2)c(=O)n1-c1ccccc1`
16

Note, next up: `CCOC(=O)N1CCC(n2cnc(-c3ccc(F)cc3)c2-c2ccnc(N)n2)CC1`
0

Note, next up: CCNCC(Cc1ccccc1)NC(=O)c1cc(Br)c(-c2ccnc3[nH]ccc23)s1.Cl.Cl (centres unmarked)
4

Note, next up: `O=C(Nc1cccc(Oc2ccc3nccn3n2)c1)Nc1cccc(C(F)(F)F)c1`
3

Note, next up: COc1ccc(Nc2nccc(N3CCC(NC(=O)c4cccc(C#N)c4)C3)n2)cc1 (centres unmarked)
0

Note, next up: `CCn1c(-c2nonc2N)nc2cncc(CNC3CCNCC3)c21.Cl`
0

Continuing:
// fetch MAP4K3 %Inh for `COc1cccc(OC)c1C(=O)Nc1cccc(-c2nn3ccccc3c2-c2ccnc(Nc3cccc(F)c3)n2)c1`
0

* * *

- System: CDK8
- experimental-context: concentration: 1 μM,replicates: in singlicate; n = 1
Some molecules, each annotated with its measured %Inh.
Express it in %; write the number only.

# input molecule: `O=C(Nc1n[nH]c2cc(-c3ccco3)ccc12)C1CC1` ; wanted: its %Inh
0

Note, next up: `C[C@@H](Oc1cc(-n2cnc3cc(-c4cnn(C)c4)ccc32)sc1C(N)=O)c1ccccc1Cl`
17

Note, next up: `CC(=O)Nc1ccc(-c2cc3ncnc(SCC(=O)O)c3s2)cc1`
0

Note, next up: `CC(C)S(=O)(=O)N1CCN(Cc2ccc3c(c2)nc(NC(=O)c2ccsc2)n3C[C@H](O)c2ccccc2)CC1`
15

* * *

- Tested on: MAP4K4
- experimental-context: concentration: 1 μM,replicates: in singlicate; n = 1
readout: %Inh (%)
Express it in %; write the number only.

# input molecule: `CSc1nccc(-c2c(-c3ccc(F)cc3)ncn2CCCN2CCOCC2)n1.Cl` ; wanted: its %Inh
0

Note, next up: `Cl.Cl.NC[C@H](CC1CCCCC1)NC(=O)c1ccc(-c2ccnc3[nH]ccc23)s1`
20

Note, next up: `Cn1ccc2ncnc(Oc3ccc(NC(=O)Nc4cccc(C(F)(F)F)c4)c(F)c3)c21`
17

Note, next up: `OCCn1cc(-c2cnc3nnn(Cc4ccc5ncccc5c4)c3n2)cn1`
0

Note, next up: `COc1cccc(OC)c1C(=O)Nc1cccc(-c2nn3ccccc3c2-c2ccnc(Nc3cccc(F)c3)n2)c1`
21

Note, next up: `Cn1ccc2ncnc(Oc3ccc(NC(=O)Nc4cc(C(C)(C)C)on4)c(Cl)c3)c21`
94

Continuing:
# input molecule: `COC(=O)Nc1nc2cc(Oc3ccc(NC(=O)Nc4cc(C(F)(F)F)ccc4Cl)cc3)ccc2[nH]1.Cl` ; wanted: its %Inh
12

Note, next up: `O=C(NCC1CC1)c1ccc(-c2cc(C(=O)NC3CC3)ccc2F)cc1`
0

* * *

- Tested on: NEK7
- experimental-context: concentration: 1 μM,replicates: in singlicate; n = 1
readout: %Inh (%)
Express it in %; write the number only.

Known results for compounds:
# input compound: `Cn1ccc2ncnc(Oc3ccc(NC(=O)Nc4cccc(C(F)(F)F)c4)c(F)c3)c21` ; wanted: its %Inh
0

Note, next up: O=c1[nH]cc(-c2ccc(O)cc2)c2sc(-c3ccncc3)cc12 [GSK1033723]
0

Note, next up: c1ccc(Oc2ccc(Nc3ccnc4ccc(-c5ccccn5)cc34)cc2)cc1 [GW407034]
0

Note, next up: `O=C(Nc1ccc(Oc2ccc3nc(NC(=O)C4CC4)cn3n2)c(F)c1)c1cccn(-c2ccccc2)c1=O`
0

Note, next up: Cc1cccc(-c2nc(Nc3ccncc3)c3sccc3n2)n1 [GW869641]
3

Continuing:
# input compound: CCn1c(-c2nonc2N)nc2cncc(Br)c21 [SB-738004] ; wanted: its %Inh
0

Note, next up: `C[C@@H]1CNc2c(sc3ccc4nc(-c5ccc(O)cc5)ccc4c23)C(=O)N1`
11

Note, next up: COC(=O)c1cccc(NC(=O)NC2CCN(c3ccnc(NCc4ccc(F)cc4)n3)CC2)c1 [GSK1379860]
4

Note, next up: COC(=O)c1cccc(NC(=O)NC2CCN(c3ccnc(Nc4cc(OC)c(OC)c(OC)c4)n3)C2)c1 (stereo not drawn) [GSK1379767]
37

* * *

Some compounds, each annotated with its measured %Inh.
- Test system: BRSK2
- experimental-context: concentration: 1 μM,replicates: in singlicate; n = 1
Express it in %; write the number only.

// fetch BRSK2 %Inh for COC(=O)c1cccc(NC(=O)NC2CCN(c3ccnc(Nc4cc(OC)c(OC)c(OC)c4)n3)C2)c1 (stereo not shown)
0

Note, next up: `NC(=O)c1ccc(-c2cc3ncnc(SCC(=O)O)c3s2)cc1`
0

Note, next up: `CN(c1ccccc1CNc1nc(Nc2ccc3c(c2)CC(=O)N3)ncc1C(F)(F)F)S(C)(=O)=O`
36

Note, next up: `Cc1n[nH]c2cc(Nc3ccnc(Nc4cccc(CN5CCOCC5)c4)n3)ccc12`
0

Measured values drawn from paper PMC5540273 for this set.
